- Test system: MT-4 (Homo sapiens)
- PROCEDURE_TEXT: Concentration required to reduce the viability of mock-infected MT-4 cells by 50% was determined by MTT method
- TEST_PARAMETERS: MT4
Could you please report measured CC50 for the items listed next?
Dear colleague, please return just the value in µM, with no unit written.

So what does the record say about CC50 for O=C(COc1ccccc1)N(C(=S)OCCOc1ccccc1)c1ccccc1 ?
103

So what does the record say about CC50 for O=C(c1ccccc1)N(C(=S)OCCc1ccccc1)c1ccccc1 ?
91

So what does the record say about CC50 for O=C1c2ccccc2C(=O)N1CCOC(=S)N(C(=O)c1ccco1)c1ccc(Cl)cc1 ?
41

====

- Tested on: MT-4 (Homo sapiens)
- PROCEDURE_TEXT: Concentration required to reduce the viability of mock-infected MT-4 cells by 50% was determined by MTT method
- TEST_PARAMETERS: MT4
MEASURED_METRIC: CC50

# get_value(readout= CC50, system= MT-4 (Homo sapiens)) for CCCCOC(=O)N(C(=S)OC(C)COc1ccccc1)c1ccccc1 (configuration not stated)
> 200 µM

# get_value(readout= CC50, system= MT-4 (Homo sapiens)) for CC(COc1ccccc1)OC(=S)N(C(=O)c1ccccc1)c1ccccc1 (configuration not stated)
> 200 µM

# get_value(readout= CC50, system= MT-4 (Homo sapiens)) for Cc1cccc(N(C(=O)c2cccs2)C(=S)OCCN2C(=O)c3ccccc3C2=O)c1
> 100 µM

# get_value(readout= CC50, system= MT-4 (Homo sapiens)) for S=C(NCCc1ccccn1)Nc1ccc(Br)cn1
60 µM

# get_value(readout= CC50, system= MT-4 (Homo sapiens)) for CC(COc1ccccc1)OC(=S)N(C(=O)c1cccs1)c1ccccc1 (configuration not stated)
> 200 µM

# get_value(readout= CC50, system= MT-4 (Homo sapiens)) for Cc1ccc(N(C(=O)c2cccs2)C(=S)OCCN2C(=O)c3ccccc3C2=O)cc1
> 100 µM

# get_value(readout= CC50, system= MT-4 (Homo sapiens)) for O=C(c1ccccc1)N(C(=S)OCCOc1ccccc1)c1ccccc1
122 µM

====

- Tested on: MT-4 (Homo sapiens)
- PROCEDURE_TEXT: Concentration required to reduce the viability of mock-infected MT-4 cells by 50% was determined by MTT method
- TEST_PARAMETERS: MT4
Could you please report measured CC50 for the items listed next?

So what does the record say about CC50 for CCc1ccccc1N(C(=O)c1cccs1)C(=S)OCCN1C(=O)c2ccccc2C1=O ?
> 100 µM

So what does the record say about CC50 for O=C(c1ccccc1)N(C(=S)OCCOc1ccccc1)C1CCCCC1 ?
> 200 µM

So what does the record say about CC50 for O=C1c2ccccc2C(=O)N1CCOC(=S)N(C(=O)c1cccs1)c1ccc(F)cc1 ?
> 100 µM

So what does the record say about CC50 for O=C1c2ccccc2C(=O)N1CCOC(=S)N(C(=O)c1cccs1)c1cccc(C(F)(F)F)c1 ?
> 100 µM

So what does the record say about CC50 for CC(COc1ccccc1)OC(=S)N(C(=O)c1cccc([N+](=O)[O-])c1)c1ccccc1 (stereo unspecified) ?
> 200 µM

So what does the record say about CC50 for O=C1c2ccccc2C(=O)N1CCOC(=S)N(C(=O)c1cccs1)c1ccc(Cl)cc1 ?
> 200 µM

====

- System: MT-4 (Homo sapiens)
- PROCEDURE_TEXT: Concentration required to reduce the viability of mock-infected MT-4 cells by 50% was determined by MTT method
- TEST_PARAMETERS: MT4
Could you please report measured CC50 for the items listed next?

So what does the record say about CC50 for CC(=O)Oc1ccccc1C(=O)N(C(=S)OCCOc1ccccc1)c1ccccc1 ?
> 200 µM

So what does the record say about CC50 for O=C1c2ccccc2C(=O)N1CCOC(=S)N(C(=O)c1cccs1)c1cccc(Cl)c1 ?
> 100 µM

So what does the record say about CC50 for Cc1ccccc1N(C(=O)c1cccs1)C(=S)OCCN1C(=O)c2ccccc2C1=O ?
> 100 µM

So what does the record say about CC50 for CC(COc1ccccc1)OC(=S)N(C(=O)c1cccs1)c1cccc(Cl)c1 (centres undefined) ?
> 100 µM
